Kindly state superoxide response (% of plate) for each of the entries shown.
experiment: calorie-restriction mimetic ROS inhibitors, yeast – validation compound set, pilot screen (AID 2706);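 further: yeast exposed to compound for one week at 30 degrees C before staining; 100% = mean of all compound wells on the same plate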; settings: S. cerevisiae aging, superoxide DHE fluorescence; at 10 µM; active compounds read low
Answers are plain numbers, in %.

{"molecule": "COc1ccc(C(=O)CCN2CCc3cc(OC)c(OC)cc3C2)cc1", "superoxide response (% of plate) [%]": 111}
{"molecule": "CC12CCCCN1CCCc1c2[nH]c2ccccc12 (stereo unspecified)", "superoxide response (% of plate) [%]": 99.9}
{"molecule": "CC(=O)CC(c1ccc([N+](=O)[O-])cc1)c1c(O)c2ccccc2oc1=O (stereo unspecified)", "superoxide response (% of plate) [%]": 105}
{"molecule": "Nc1ccc(S(N)(=O)=O)cc1N", "superoxide response (% of plate) [%]": 82.8}
{"molecule": "Cc1ccc(S(=O)(=O)n2ccnc2)cc1C", "superoxide response (% of plate) [%]": 95.2}

Return superoxide response (% of plate) for the following molecule: NC(=O)c1ccccc1O
95.9
